Assay: yeast display, Sf9 membrane polyspecificity reagent, FACS + sequencing; frameworks hold sequencing errors

sequence-chain: QVQLVESGGGLVQAGGSLRLSCAASGSIFIYYTMGWYRQAPGKEREFVASISWRGGRTYYADSVKGRFTISRDNAKNTVYLQMNSLKPEETAVYYCAAEQSRGIEFSYYSLYYWGQGTQVTVSS
polyreactivity (PSR sort gate): high polyreactivity
//
sequence-chain: QVQLVESGGGLVQAGGSLRLSCAASGRTFRYYAMGWYRQAPGKERELVAAITSVGGTYYADSVKGRFTISRDNAKNTVYLQMNSLKPEDTAVYYCAVTSYKYRKYDYWGQGTQVTVSS
polyreactivity (PSR sort gate): high polyreactivity
//
sequence-chain: QLQLVESGGGLVQAGGSLRLSCAASGFIFHRNAMGWYRQAPGKERELVAAISGSGGSTYYADSVNGRFTISRDNAKNTVYLQMNSLKPEDTAVYYCAKRGRSTYGYDYWGQGTQVNVSS
polyreactivity (PSR sort gate): high polyreactivity
//
sequence-chain: QVQLVESGGGLVQAGGSLRLSCAASGSTFYRYAMGWYRQAPGKERELVATISWTDGRTNYADSVKGRFTISRDNAKNPVYLQMNSLKPEDTAVYDCAARRYRRWYDYWGQGTQVTVSS
polyreactivity (PSR sort gate): high polyreactivity
//
sequence-chain: QVQLVESGGCLVQAGGSLRLSCAASGCTFVSNAMGWSRQAPGKERELVAAINGSGGITYYADSVKGRFTISRDNAKNTVYFQMNSLKPEDTAVYYCAAEVLYWRGYYNYWGQGTQVTVSS
polyreactivity (PSR sort gate): low polyreactivity
//
sequence-chain: QVQLVESGGGLVQAGGSLRLSCAASGSTFSEYGMGWYRQAPGKERELVARITSGGSPYYADSVKGRFTISRDNAKYTVYLQMNSLKPEDTAVYYCATVKTRDYWGQGTQVTVSS
polyreactivity (PSR sort gate): low polyreactivity
//
sequence-chain: QVQLVESGGGLVQAGGSLRLSCAASGYSFSYYAMGWSRQAPGKERELVAAISWSGGSTYYADSVKGRFTISRDNAKNTVYLQMNRLKPEDTAVYYCATEVVAYRRYSAYGYWGQGTQVTVSS
polyreactivity (PSR sort gate): high polyreactivity
//
sequence-chain: QVQLVESGGGLVQAGGSIRLSCAASGRILYYYVMGWYRQAPGKERELVAAITRGGSTDYADSVKGRFTISRDNAKNTVYLQMNSLKPEDTAVFYCAVPSWPFWVRVEGDYWGQGTQVSVSS
polyreactivity (PSR sort gate): low polyreactivity
//
sequence-chain: QVQLVESGGGLVQAGGSLRLSCAASGSIFGTNAMGGYRQAPGKETELVADISGSGGTTYYADSVKGRFTISRDNAKNTVDLQMNSLKPEDTAVYYCAAKGRAGYGYTAYANDYGGQGTQVTVSS
polyreactivity (PSR sort gate): low polyreactivity
//
sequence-chain: QVQLVESGGGLVQAGGSLRLSCAASGSTFQYYAMGWYRQAPGKERELVAAISSSGGSTYYADSVKGRFTISRDNAKNTVYLQMNSLKPEDTAVYYCAKRFRRFTYTRDYWGQGTQVTVSS
polyreactivity (PSR sort gate): high polyreactivity
//
sequence-chain: QVQLVESGGGLVQAGGSLRLSCAASGFTFYQYGMGWYRQAPGKERELVATITSGGRTNYADSVKGRFTISRDNAKNTVYLQMNSLKPEDTAVYYCNKLPYYPRFGRIGRYYYWGQGTQVTVSS
polyreactivity (PSR sort gate): high polyreactivity

Data credit: the nanobody polyreactivity screen of Harvey et al. (2022)
